# assay_text: Pharmacokinetic in BALB-c female mice, i.v. and oral
# Format: in vivo
# experimental_context: mouse, plasma, po, P.O dose 10.00 mg/Kg vs I.V 5.00 mg/Kg, read-out: F % (bioavailability)
# Description: Experiments were done using BALB-c female mice, 10 weeks old. Compounds were dissolved in selected vehicles at a concentration calculated in order to administer the dose selected in 0.1 mL. Animals were administered by i.v and oral route (by gavage), and sacrificed at different time points (n=3 at each time point). […] Blood was collected and processed for plasma which was analyzed and quantified by means of tandem mass spectrometry coupled with liquid chromatography. […]
Reported bioavailability values follow for various compounds
Express the result in % but write the number alone.

Field: example entries. Status: answers known.
COc1ncc2cc1NS(=O)(=O)c1cccc(c1)C(=O)NCc1cccc(c1)-c1ccnc3ccc-2cc13 ... 101
COc1ncc2cc1NS(=O)(=O)c1cccc(c1)C(=O)NCc1cncc(c1)-c1ccnc3ccc-2nc13 ... 34
COc1ncc2cc1NS(=O)(=O)c1cccc(c1)C(=O)NCc1cccc(c1)-c1cnn3ccc-2nc13 ... 123
COc1ncc2cc1NS(=O)(=O)c1cccc(c1)C(=O)NCc1cccc(c1)-c1ncnc3ccc-2cc13 ... 33.5
COc1ncc2cc1NS(=O)(=O)c1cc(c(F)cc1F)C(=O)NCc1cncc(c1)-c1ccnc3ccc-2cc13 ... 39.9

// field: bioavailability; key: COc1ncc2cc1NS(=O)(=O)c1cccc(c1)C(=O)NCC1=CC=C(S1)c1ncnc3c1SC2=C3C ; value = 34.5

// field: bioavailability; key: COc1ncc2cc1NS(=O)(=O)c1cccc(c1)C(=O)NCCn1cc(cn1)-c1ncnc3ccc-2cc13 ; value = 48.1

----------
# tgt: PI3K (p110α/p85α) (Homo sapiens)
# Construct: purchased Carna Biosciences 07CBS-0402A
# assay_text: PI3K activity assay (ADP Hunter Plus)
# Format: biochemical
# experimental_context: read-out: PI3K alpha activity, IC50 (semi-quantitative class)
endpoint_name: IC50

Field: example entries. Status: answers known.
COc1ncc2cc1NS(=O)(=O)c1cccc(c1)C(=O)NCC1CCN(CC1)c1ncnc3cc-2sc13 ... > 1000 nM
O=C1NCc2cncc(c2)-c2ccnc3ccc(cc23)-c2cnc(O)c(c2)NS(=O)(=O)c2cccc1c2 ... 100 to 1000 nM
COc1ncc2cc1NS(=O)(=O)c1cccc(c1)C(=O)NCc1cncc(c1)-c1cnc3ccc-2nn13 ... < 100 nM
COc1ncc2cc1NS(=O)(=O)c1cccc(c1)C(=O)NCc1cncc(c1)-c1cnn3ccc-2nc13 ... < 100 nM

The reported PI3K (p110α/p85α) (Homo sapiens) IC50 of COc1ncc2cc1NS(=O)(=O)c1cccc(c1)C(=O)Nc1cncc(c1)-c1ncnc3c1SC2=C3 is < 100 nM

----------
# tgt: mTOR (Homo sapiens)
# Construct: purchased Invitrogen PV4754
# Sequence (P42345 1360-2549 limits assumed): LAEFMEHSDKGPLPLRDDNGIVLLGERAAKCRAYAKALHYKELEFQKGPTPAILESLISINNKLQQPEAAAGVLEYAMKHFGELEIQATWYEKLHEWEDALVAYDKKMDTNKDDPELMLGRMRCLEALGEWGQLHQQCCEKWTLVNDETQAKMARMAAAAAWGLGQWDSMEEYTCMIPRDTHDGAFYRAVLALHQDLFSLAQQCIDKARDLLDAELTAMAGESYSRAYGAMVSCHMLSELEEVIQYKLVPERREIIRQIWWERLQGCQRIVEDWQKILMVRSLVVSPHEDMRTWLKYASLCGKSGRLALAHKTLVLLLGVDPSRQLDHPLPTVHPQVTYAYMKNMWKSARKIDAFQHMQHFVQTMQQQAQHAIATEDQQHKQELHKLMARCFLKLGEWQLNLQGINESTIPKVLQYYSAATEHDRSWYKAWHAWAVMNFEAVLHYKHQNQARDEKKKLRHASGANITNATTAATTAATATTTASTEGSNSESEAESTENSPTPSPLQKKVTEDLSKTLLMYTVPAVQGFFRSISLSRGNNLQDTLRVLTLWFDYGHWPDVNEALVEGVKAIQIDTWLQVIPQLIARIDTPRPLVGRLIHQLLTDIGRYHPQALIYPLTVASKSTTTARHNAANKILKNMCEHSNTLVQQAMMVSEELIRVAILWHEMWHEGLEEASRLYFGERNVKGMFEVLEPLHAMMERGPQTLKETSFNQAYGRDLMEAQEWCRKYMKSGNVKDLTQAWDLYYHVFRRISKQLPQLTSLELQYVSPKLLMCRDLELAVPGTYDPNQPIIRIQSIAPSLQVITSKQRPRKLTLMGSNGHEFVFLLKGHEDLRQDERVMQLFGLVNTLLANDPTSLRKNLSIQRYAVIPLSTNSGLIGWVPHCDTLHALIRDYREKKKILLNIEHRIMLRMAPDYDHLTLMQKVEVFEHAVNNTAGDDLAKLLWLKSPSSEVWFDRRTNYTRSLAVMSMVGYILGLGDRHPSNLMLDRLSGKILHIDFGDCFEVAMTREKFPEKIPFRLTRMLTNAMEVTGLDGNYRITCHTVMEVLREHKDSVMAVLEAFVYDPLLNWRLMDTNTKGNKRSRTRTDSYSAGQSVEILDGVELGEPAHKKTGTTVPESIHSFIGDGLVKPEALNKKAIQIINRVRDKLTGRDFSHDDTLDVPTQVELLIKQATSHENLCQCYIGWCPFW
# assay_text: mTOR assay (LanthaScreen kinase activity assay)
# Type: biochemical
# experimental_context: read-out: mTOR actual IC50 (in parentheses)
Reported IC50 values follow for various compounds
Express the result in nM but write the number alone.

COc1ncc2cc1NS(=O)(=O)c1cccc(c1)C(=O)NCc1cccc(c1)-c1cnc3ccc-2nn13 ... 10
COc1ncc2cc1NS(=O)(=O)c1cccc(c1)C(=O)NCC1CCN(CC1)c1ccnc3ccc-2cc13 ... 72
COc1ncc2cc1NS(=O)(=O)c1cccc(c1)C(=O)NCCn1cc(cn1)-c1ncnc3ccc-2cc13 ... 4.8
COc1ncc2cc1NS(=O)(=O)c1cc(c(F)cc1F)C(=O)NCc1cccc(c1)-c1cnn3ccc-2nc13 ... 12
COc1ncc2cc1NS(=O)(=O)c1cccc(c1)C(=O)NCc1cncc(c1)-c1ncnc3ccc-2cc13 ... 16

// field: IC50; key: COc1ncc2cc1NS(=O)(=O)c1cccc(c1)C(=O)NCc1cncc(c1)-c1cnc3ccc-2nn13 ; value = 5

----------
# tgt: PIM-1 (Homo sapiens)
# Construct: histidine tag (C); made in house
# assay_text: PIM-1 biochemical assay (ADP Hunter)
# experimental_context: PIM1; read-out: PIM-1 activity, IC50 (semi-quantitative class)
pIC50: −log10 of the molar value.
endpoint_name: pIC50

Field: example entries. Status: answers known.
COc1ncc2cc1NS(=O)(=O)c1cccc(c1)C(=O)NCc1cncc(c1)-c1ncnc3ccc-2cc13 [compound 41] ... < 6.00
O=C1NCc2cncc(c2)-c2ccnc3ccc(cc23)-c2cncc(c2)NS(=O)(=O)c2cccc1c2 [compound 49] ... < 6.00
O=C1NCc2cncc(c2)-c2ncnc3c2SC(=C3)c2cnc(Cl)c(c2)NS(=O)(=O)c2cccc1c2 [compound 58] ... 6.00 to 7.00

The reported PIM-1 (Homo sapiens) pIC50 of COc1ncc2cc1NS(=O)(=O)c1cc(c(F)cc1F)C(=O)NCc1cncc(c1)-c1ccnc3ccc-2nc13 [compound 71] is < 6.00

----------
Reported IC50 values follow for various compounds
# tgt: PIM-1 (Homo sapiens, UniProt P11309)
# Construct: histidine tag (C); made in house
# Sequence (P11309 whole entry): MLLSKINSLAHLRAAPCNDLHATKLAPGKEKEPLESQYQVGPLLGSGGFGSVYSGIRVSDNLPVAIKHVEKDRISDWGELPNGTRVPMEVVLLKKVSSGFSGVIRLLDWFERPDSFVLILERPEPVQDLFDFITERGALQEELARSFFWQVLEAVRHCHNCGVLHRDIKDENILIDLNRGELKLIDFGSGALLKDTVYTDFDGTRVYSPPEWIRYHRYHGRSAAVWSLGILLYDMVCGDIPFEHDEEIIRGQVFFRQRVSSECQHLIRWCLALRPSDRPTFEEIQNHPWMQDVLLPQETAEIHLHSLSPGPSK
# assay_text: PIM-1 biochemical assay (ADP Hunter)
# experimental_context: PIM1; read-out: PIM-1 activity, IC50 (semi-quantitative class)

COc1ncc2cc1NS(=O)(=O)c1cccc(c1)C(=O)NCc1cc(ccn1)-c1ncnc3c1SC2=C3 [compound 42] ... 0.1 to 1 µM
COc1ncc2cc1NS(=O)(=O)c1cccc(c1)C(=O)NCc1cc(ccn1)-c1ccnc3ccc-2cc13 [compound 15] ... > 1 µM
COc1ncc2cc1NS(=O)(=O)c1cccc(c1)C(=O)NCC1=CC=C(O1)c1ncnc3c1SC2=C3 [compound 69] ... 0.1 to 1 µM
O=C1NCc2cncc(c2)-c2ncnc3c2SC(=C3)c2cnc(O)c(c2)NS(=O)(=O)c2cccc1c2 [compound 45] ... 0.1 to 1 µM
CC(C)Oc1ncc2cc1NS(=O)(=O)c1cccc(c1)C(=O)NCc1cncc(c1)-c1ncnc3c1SC2=C3 [compound 50] ... > 1 µM

// field: IC50; key: COc1ncc2cc1NS(=O)(=O)c1cccc(c1)C(=O)NCc1cncc(c1)-c1c[nH]c3ncc-2cc13 [compound 20] ; value = > 1 µM

// field: IC50; key: COc1ncc2cc1NS(=O)(=O)c1cccc(c1)C(=O)N(C)CC1CCN(CC1)c1ccnc3ccc-2cc13 [compound 24] ; value = > 1 µM

----------
# tgt: mTOR (Homo sapiens)
# Construct: purchased Invitrogen PV4754
# assay_text: mTOR assay (LanthaScreen kinase activity assay)
# Type: biochemical
# experimental_context: read-out: mTOR activity, IC50 (semi-quantitative class)
endpoint_name: IC50

Field: example entries. Status: answers known.
COc1ncc2cc1NS(=O)(=O)c1cccc(c1)C(=O)NCc1csc(c1)-c1ncnc3c1SC2=C3 ... > 1 µM
COc1ncc2cc1NS(=O)(=O)c1cccc(c1)C(=O)NCCn1cc(cn1)-c1cnn3ccc-2nc13 ... < 0.1 µM
COc1ncc2cc1NS(=O)(=O)c1cccc(c1)C(=O)NCc1cccc(c1)-c1cnc3sc-2nn13 ... 0.1 to 1 µM
COc1ncc2cc1NS(=O)(=O)c1cc(c(F)cc1F)C(=O)NCc1cncc(c1)-c1ncnc3c1SC2=C3 ... > 1 µM
COc1ncc2cc1NS(=O)(=O)c1cccc(c1)C(=O)NCCn1cc(cn1)-c1cnc3ccc-2cn13 ... < 0.1 µM
COc1ncc2cc1NS(=O)(=O)c1cccc(c1)C(=O)NCc1cccc(c1)-c1ncnc3c1SC2=C3 ... > 1 µM
COc1ncc2cc1NS(=O)(=O)c1cccc(c1)C(=O)NCc1cc(F)cc(c1)-c1ncnc3c1SC2=C3 ... > 1 µM
COc1ncc2cc1NS(=O)(=O)c1cccc(c1)C(=O)NCCN1CC=C(CC1)c1cnc3ccc-2nn13 ... < 0.1 µM
COc1ncc2cc1NS(=O)(=O)c1cccc(c1)C(=O)NCc1nc(cs1)-c1ncnc3c1SC2=C3 ... > 1 µM
COc1ncc2cc1NS(=O)(=O)c1ccc(F)c(c1)C(=O)NCc1cncc(c1)-c1ncnc3c1SC2=C3 ... > 1 µM

// field: IC50; key: COc1ncc2cc1NS(=O)(=O)c1cccc(c1)C(=O)NCc1cccc(c1)-c1ncnc3sc-2cc13 ; value = > 1 µM

// field: IC50; key: COc1ncc2cc1NS(=O)(=O)c1cc(c(F)cc1F)C(=O)NCc1cncc(c1)-c1ccnc3ccc-2nc13 ; value = < 0.1 µM

----------
# tgt: PI3K (p110α/p85α) (Homo sapiens, UniProt P42336)
# Construct: purchased Carna Biosciences 07CBS-0402A
# Sequence (P42336 whole entry): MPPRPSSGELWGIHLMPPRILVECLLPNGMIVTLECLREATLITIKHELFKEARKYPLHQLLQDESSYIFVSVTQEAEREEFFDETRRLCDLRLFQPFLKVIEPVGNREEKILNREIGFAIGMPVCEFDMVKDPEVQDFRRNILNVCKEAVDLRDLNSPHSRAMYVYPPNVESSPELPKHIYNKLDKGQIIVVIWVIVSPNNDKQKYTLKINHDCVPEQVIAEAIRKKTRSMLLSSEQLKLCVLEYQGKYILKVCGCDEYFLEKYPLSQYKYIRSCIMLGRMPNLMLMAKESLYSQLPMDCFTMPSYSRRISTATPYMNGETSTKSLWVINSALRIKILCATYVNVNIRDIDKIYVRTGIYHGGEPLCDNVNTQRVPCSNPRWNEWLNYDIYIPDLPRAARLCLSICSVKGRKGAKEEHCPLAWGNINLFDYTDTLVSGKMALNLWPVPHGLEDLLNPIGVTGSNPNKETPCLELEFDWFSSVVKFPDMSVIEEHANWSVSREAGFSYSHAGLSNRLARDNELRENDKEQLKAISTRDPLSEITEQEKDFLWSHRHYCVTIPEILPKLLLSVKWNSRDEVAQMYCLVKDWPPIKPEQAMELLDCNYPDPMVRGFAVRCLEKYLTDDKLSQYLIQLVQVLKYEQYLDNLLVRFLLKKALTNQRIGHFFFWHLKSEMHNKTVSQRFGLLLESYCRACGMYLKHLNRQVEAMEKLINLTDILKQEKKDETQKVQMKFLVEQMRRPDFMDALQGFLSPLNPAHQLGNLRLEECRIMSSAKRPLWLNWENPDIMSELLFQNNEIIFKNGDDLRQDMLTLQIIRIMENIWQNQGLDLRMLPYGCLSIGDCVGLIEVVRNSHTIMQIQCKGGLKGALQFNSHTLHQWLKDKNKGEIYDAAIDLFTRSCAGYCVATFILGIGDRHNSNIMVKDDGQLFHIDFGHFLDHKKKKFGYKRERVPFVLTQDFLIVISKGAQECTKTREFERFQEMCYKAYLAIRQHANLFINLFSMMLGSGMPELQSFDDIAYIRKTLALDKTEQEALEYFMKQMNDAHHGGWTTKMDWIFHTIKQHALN
# Sequence (P27986 whole entry partner): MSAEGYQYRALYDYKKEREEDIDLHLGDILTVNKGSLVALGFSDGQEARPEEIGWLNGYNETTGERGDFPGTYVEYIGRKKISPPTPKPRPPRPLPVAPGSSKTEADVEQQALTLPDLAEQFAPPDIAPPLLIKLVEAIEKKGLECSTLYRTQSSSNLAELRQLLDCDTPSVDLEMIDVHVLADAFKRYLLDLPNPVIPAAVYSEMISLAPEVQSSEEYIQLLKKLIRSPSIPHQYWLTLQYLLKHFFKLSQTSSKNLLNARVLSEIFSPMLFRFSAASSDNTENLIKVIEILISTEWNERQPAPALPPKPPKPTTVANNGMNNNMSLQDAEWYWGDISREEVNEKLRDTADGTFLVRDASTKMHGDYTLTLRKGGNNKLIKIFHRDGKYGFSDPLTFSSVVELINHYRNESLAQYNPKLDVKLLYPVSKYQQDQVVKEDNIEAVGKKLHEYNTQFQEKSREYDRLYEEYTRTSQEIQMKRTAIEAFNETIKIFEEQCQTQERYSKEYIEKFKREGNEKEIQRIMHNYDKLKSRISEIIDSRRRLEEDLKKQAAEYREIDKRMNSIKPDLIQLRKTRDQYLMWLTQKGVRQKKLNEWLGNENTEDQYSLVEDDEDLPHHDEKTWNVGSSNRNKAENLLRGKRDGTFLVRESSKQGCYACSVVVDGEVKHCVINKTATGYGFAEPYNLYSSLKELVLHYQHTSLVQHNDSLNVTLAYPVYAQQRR
# assay_text: PI3K activity assay (ADP Hunter Plus)
# Format: biochemical
# experimental_context: read-out: PI3K alpha actual IC50 (in parentheses)
pIC50: −log10 of the molar value.
Mark Y for reported pIC50 of 8 or greater; mark N for anything smaller.

COc1ncc2cc1NS(=O)(=O)c1cccc(c1)C(=O)NCCn1cc(cn1)-c1ncnc3ccc-2cc13 ... Y

Exam item: Quick check: does O=C1NCc2cc(ccn2)-c2ncnc3c2SC(=C3)c2cncc(c2)NS(=O)(=O)c2cccc1c2 have pIC50 greater than or equal to 8?
Marked response: N

Exam item: Quick check: does COc1ncc2cc1NS(=O)(=O)c1cccc(c1)C(=O)NCc1cccc(c1)-c1ccnc3ccc-2nc13 have pIC50 greater than or equal to 8?
Marked response: Y

Attribution: patent US9808466B2
